From: patent US9034861B2

measurement_target: recombinant full-length human GST-MEK1 (Homo sapiens, UniProt Q02750)
Construct: Purified recombinant full-length human GST-MEK1; GST
Sequence (Q02750 whole entry): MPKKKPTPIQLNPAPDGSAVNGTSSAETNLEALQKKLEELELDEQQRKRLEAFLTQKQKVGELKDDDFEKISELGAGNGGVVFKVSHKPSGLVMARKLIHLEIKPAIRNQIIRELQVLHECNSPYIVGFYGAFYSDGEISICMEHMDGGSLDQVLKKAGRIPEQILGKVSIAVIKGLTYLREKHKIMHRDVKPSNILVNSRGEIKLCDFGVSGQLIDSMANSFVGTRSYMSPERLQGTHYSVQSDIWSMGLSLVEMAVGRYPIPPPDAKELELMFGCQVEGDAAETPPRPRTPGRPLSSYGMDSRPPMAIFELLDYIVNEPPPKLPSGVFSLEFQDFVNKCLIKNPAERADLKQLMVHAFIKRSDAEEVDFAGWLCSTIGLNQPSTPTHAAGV
protocol_notes: MEK Enzyme Inhibitory Assay (ADP-Glo)
readout_kind: IC50 (nM)
Respond numerically; units are nM and should not be typed.

## Task Provide measured IC50 on recombinant full-length human GST-MEK1 (Homo sapiens, UniProt Q02750) for O=S1(=O)Nc2c(cc(F)c(F)c2Nc2ccc(I)cc2F)OCC(O)C(O)CC12CC2 (racemic) [Example 8] please.
## Result 21

###

System: Caki-1 cells
protocol_notes: Proliferation / cell survival assay (CellTiterGlo, 72 hour)
Format: cell-based
condition_info: Homo sapiens; Caki (Caki-1), WT; average of two experiments; read-out: IC50, in vitro cell survival / proliferation
pIC50: −log10 of the molar value.
Task for the reader: assign each of the following compounds its reported pIC50.

## Task Determine its reported pIC50: O=S1(=O)Nc2c(cc(F)c(F)c2Nc2ccc(I)cc2F)OCC(O)C(O)CC12CC2 (racemic)
## Result < 6.00

## Task Determine its reported pIC50: COc1cc(F)c(F)c(Nc2ccc(I)cc2F)c1NS(=O)(=O)C1(C[C@H](O)CO)CC1 [RDEA 119, reference compound]
## Result < 6.00
